Target: human TLR7 (Homo sapiens, UniProt Q9NYK1)
Construct: expressed in transfected cells; host or cells: HEK 293 (hTLR7/seap-293)
Sequence (Q9NYK1 27-1049): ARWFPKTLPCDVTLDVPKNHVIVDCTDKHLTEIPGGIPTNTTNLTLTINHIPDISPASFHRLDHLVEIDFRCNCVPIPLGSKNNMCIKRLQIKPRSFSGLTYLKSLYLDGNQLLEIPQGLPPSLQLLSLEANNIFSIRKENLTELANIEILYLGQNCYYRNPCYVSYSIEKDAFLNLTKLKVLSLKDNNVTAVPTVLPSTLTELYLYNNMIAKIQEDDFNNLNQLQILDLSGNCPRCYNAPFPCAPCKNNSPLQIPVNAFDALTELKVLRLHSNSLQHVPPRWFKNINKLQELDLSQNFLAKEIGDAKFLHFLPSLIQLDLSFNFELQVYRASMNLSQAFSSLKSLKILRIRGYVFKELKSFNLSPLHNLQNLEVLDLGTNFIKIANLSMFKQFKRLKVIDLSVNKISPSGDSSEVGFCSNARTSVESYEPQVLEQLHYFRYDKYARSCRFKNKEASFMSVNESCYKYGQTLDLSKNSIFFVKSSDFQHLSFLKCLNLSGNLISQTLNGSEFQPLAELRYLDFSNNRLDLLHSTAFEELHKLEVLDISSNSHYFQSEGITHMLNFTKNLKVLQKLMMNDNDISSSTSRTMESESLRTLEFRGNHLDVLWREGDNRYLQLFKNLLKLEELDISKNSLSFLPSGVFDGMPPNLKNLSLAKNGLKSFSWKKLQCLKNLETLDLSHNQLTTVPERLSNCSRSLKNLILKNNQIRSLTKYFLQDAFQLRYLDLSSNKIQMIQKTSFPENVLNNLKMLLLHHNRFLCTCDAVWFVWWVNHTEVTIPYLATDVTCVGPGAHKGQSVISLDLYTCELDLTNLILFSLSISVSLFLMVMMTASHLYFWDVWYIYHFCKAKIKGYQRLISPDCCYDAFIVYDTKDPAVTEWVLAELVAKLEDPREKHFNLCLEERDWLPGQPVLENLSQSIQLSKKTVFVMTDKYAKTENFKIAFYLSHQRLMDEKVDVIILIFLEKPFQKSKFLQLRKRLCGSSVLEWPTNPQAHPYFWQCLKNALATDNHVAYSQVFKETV
Assay: Human TLR7 reporter assay (NF-kB-SEAP, HEK 293 cells)
Type: cell-based
Settings: Table 1; HEK 293 hTLR7/NF-kB-SEAP reporter, 20 hours incubation; read-out: human TLR7 binding activity EC50
PROPERTY MEASURED: EC50 (nM)

A selection of reference data follows.
Nc1nc(OCCCC(F)(F)F)nc2c1[nH]c(=O)n2Cc1ccc(CN2CCOCC2)cc1
14.8
CCCCOc1nc(N)c2nc(O)n(Cc3ccc(CN4CCOCC4)cc3)c2n1
7.2

(a) CCOc1nc(N)c2[nH]c(=O)n(Cc3ccc(CN4CCOCC4)cc3)c2n1
(b) CCCCOc1nc(N)c2[nH]c(=O)n(Cc3ccc(CN4CCC(N(C)C)C4)cc3)c2n1 (stereo not shown)
## Task Please indicate which entry, a or b , has the lower recorded EC50 value. Returns: label corresponding to the selected item.
## Result b
